Source of measurements: patent US8536226B2

Biological target: Melanocortin-5 (MC-5) receptor (Homo sapiens, UniProt P33032)
Sequence (P33032 whole entry): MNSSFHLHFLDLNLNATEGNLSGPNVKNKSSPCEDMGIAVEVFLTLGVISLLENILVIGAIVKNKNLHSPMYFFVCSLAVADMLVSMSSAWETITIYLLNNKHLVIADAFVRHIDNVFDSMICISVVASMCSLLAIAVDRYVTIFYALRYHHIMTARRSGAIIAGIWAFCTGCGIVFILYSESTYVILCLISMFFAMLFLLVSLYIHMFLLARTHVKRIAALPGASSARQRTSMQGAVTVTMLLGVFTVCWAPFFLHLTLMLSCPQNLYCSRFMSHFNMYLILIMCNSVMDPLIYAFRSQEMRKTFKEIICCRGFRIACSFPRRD
Assay: MC-5 receptor binding assay, CEREP (human recombinant CHO cells, [125]NDP-α-MSH)
Details: Cheng Prusoff
Assay Readout: Ki (µM)

>  <Structure>
COc1ccccc1N/C(=N\C(=S)Nc1ccccc1)c1ccccc1OC

>  <Numeric Result>
53

$$$$

---

Target: Melanocortin-5 (MC-5) receptor (Homo sapiens, UniProt P33032)
Test: MC-5 receptor binding assay, MDS-PANLABS (human recombinant HEK-293 cells, [125]NDP-α-MSH)
Set-up: host or cells: HEK-293 cells
Conditions: MDS-PANLABS MEAN ± SD
Assay Readout: Ki (nM)

>  <Structure>
COc1ccccc1N/C(=N\C(=S)Nc1ccccc1)c1ccccc1OC

>  <Assay Readout>
Ki

>  <Unit Descriptor>
nM

>  <Numeric Result>
2200

$$$$
